measured_quantity: melting point

Below are worked cases with known answers.
# compound, endpoint_value
data = [
    ("CN1CC(=O)c2c(c3ccccc3n2C)S1(=O)=O", "180 °C"),
    ("O=C1NC(=S)SC1=Cc1ccc(OCc2ccccc2)cc1", "> 225 °C"),
    ("CCN(C)C1=NS(=O)(=O)c2cc(Cl)ccc2N1", "> 220 °C"),
    ("CN(C)c1ccc(-c2cncc(OC3SCC(O)C(O)C3O)c2)cc1 (centres undefined)", "240 °C"),
    ("CCn1cc(C(=O)O)c(=O)c2cc(F)c(N3CCN(S(=O)(=O)c4ccc(N)cc4)CC3)cc21", "283 to 284 °C"),
    ("Cc1ccc(N2Cc3ccccc3P2(=O)c2ccccc2)cc1 (centres undefined)", "197 to 199 °C"),
]

-- ask Name the recorded melting point for CCCCC(CC)COC(=O)C(=Cc1ccc(-c2nc3ccccc3o2)cc1)C(=O)CC (centres undefined) .
-- reply 82 to 83 °C

-- ask So what's the measured melting point for this one? COc1ccc2c(c1)c1c(n2Cc2ccccc2)CCCC1C(=O)O (centres undefined)
-- reply 179 to 183 °C

-- ask Which measured melting point value corresponds to O=[N+]([O-])c1ccc(-c2ncnn2-c2ccc(Br)cc2)cc1 ?
-- reply 142 to 144 °C

----------
measured_quantity: melting point (°C)

# smiles_data, endpoint_value
measured = [
    ("COC1(OC)C(=O)Nc2ccc(C(=O)c3ccc(Cl)cc3)cc21", 170),
    ("CN1C2CCCC1CN(c1ccc(C#Cc3ccc(N)cc3)cc1)C2", 191),
    ("CN(C)n1c(=O)c2ccccc2n(C)c1=O", 154),
    ("Cc1cn(C)c2c1N(C(=O)CCN1CCCC1)c1ccccc1NC2=O", 185),
]

----------
# melting point per entry

Guide cases for melting point, answers given:
# compound, melting point
rows = [
    ("Cn1c(C(F)(F)F)cc(=O)n(-c2cc(OCc3cccs3)c(Cl)cc2F)c1=O", "156 to 158 °C"),
    ("COc1ccc(NC(=O)c2ccc(-c3ccncc3)s2)cc1N1CCN(C)CC1", "191 to 194 °C"),
    ("C[C@@H](n1cnc2cc(N(C)C)ccc2c1=O)[C@](O)(Cn1cncn1)c1ccc(F)cc1F", "201 °C"),
    ("O=C(CCOc1cccc(CN2CCCCC2)c1)Nc1cccnc1", "92 to 96 °C"),
    ("CC1(C)CC(C(O)CNc2nc(NCC(O)C3CC(C)(C)NC(C)(C)C3)nc(NCC(O)C3CC(C)(C)NC(C)(C)C3)n2)CC(C)(C)N1 (stereo not drawn)", "176 to 178 °C"),
]

-- ask // query melting point value for entry CC(=O)OCCc1ccc2c(c1)Cc1ccccc1O2
-- reply 62 to 64 °C

-- ask Form field: reported melting point of CCN1C(=O)C(C)(C)C(=O)N(C)c2cc(CN(CCn3ccc4occc4c3=O)Cc3cc(C)nn3C)ccc21
-- reply 161 to 165 °C

-- ask Could you share which melting point value was measured for CC(=O)NCC(=O)NS(=O)(=O)c1ccc(-c2c(-c3ccccc3)noc2C)cc1 ?
-- reply 218 to 219 °C

-- ask Requested field: melting point. Item: CCOC(=O)c1cc(C)n(-c2cccc(N(C)C)c2)c1-c1ccccc1
-- reply 112 to 114 °C

-- ask Item under review: CCN(CC)C(=O)COC(=O)CCc1cc(S(C)(=O)=O)cc(-c2nc(=O)c3ccc(Cl)cc3s2)n1 . Reported melting point?
-- reply 179 to 180 °C

-- ask Query (compound): Cn1cc(C2=C(c3cn(CCCNc4ncccc4[N+](=O)[O-])c4ccccc34)C(=O)NC2=O)c2ccccc21 ; field requested: melting point
-- reply 218 to 220 °C

-- ask Request the reported melting point associated with O=C(NCCCCCn1cnc2cnc3ccccc3c21)c1ccccc1
-- reply 172 °C

-- ask Give the measured melting point of CC(=O)NC[C@H]1CN(c2ccc3c(c2)CCC(C)N3)C(=O)O1 (stereo partly drawn) .
-- reply 158 to 159 °C
